- ASSAYED SYSTEM: human MC4R receptor (human, UniProt P32245 1-332)
- Sequence (P32245 whole entry): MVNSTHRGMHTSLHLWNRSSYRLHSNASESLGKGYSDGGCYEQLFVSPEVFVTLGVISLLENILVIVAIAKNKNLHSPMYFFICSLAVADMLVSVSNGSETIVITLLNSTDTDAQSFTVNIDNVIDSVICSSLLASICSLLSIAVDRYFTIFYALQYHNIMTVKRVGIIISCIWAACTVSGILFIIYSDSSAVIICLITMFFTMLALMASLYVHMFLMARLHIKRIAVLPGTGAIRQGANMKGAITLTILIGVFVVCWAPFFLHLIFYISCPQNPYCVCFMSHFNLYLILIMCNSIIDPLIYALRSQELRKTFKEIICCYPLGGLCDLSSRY
- TEST SUMMARY: cell-based or functional assay
Starred links: 1 amine or outer side, 2 acyl side, 3 side chain; linkers in the order of their positions; H or OH if unused. Positions of bridges follow the written chain, without caps; N, C: chain ends. Non-standard residues stand in square brackets, D forms with d. Primed or numbered codes have the meaning given here. dTyr(4-OMe)″ = O-methyl-D-tyrosine, COc1ccc(C[C@@H](N[*:1])C(=O)[*:2])cc1; 2Nal = N[C@@H](Cc1ccc2ccccc2c1)C(=O)O; Cit = NC(=O)NCCC[C@H](N)C(=O)O; Nle = CCCC[C@H](N)C(=O)O; Aib = CC(C)(N)C(=O)O
MEASUREMENT KIND: % max activation (%)

BINDER: Ac-RC[Aib][Cit][dTyr(4-OMe)″]RFC-NH2 (disulfide 2-8) [CTX-1299]
MEASURED RESULT: 78
--
BINDER: Ac-[Nle]CH[2Nal]R[dW]CRFG-NH2 (disulfide 2-7; SMILES CCCC[C@H](NC(C)=O)C(=O)N[C@H]1CSSC[C@@H](C(=O)N[C@@H](CCCNC(=N)N)C(=O)N[C@@H](Cc2ccccc2)C(=O)NCC(N)=O)NC(=O)[C@@H](Cc2c[nH]c3ccccc23)NC(=O)[C@H](CCCNC(=N)N)NC(=O)[C@H](Cc2ccc3ccccc3c2)NC(=O)[C@H](Cc2c[nH]cn2)NC1=O) [CTX-2128]
MEASURED RESULT: 87
--
BINDER: Ac-R[Nle]CR[dF]RFC-NH2 (disulfide 3-8; SMILES CCCC[C@H](NC(=O)[C@H](CCCNC(=N)N)NC(C)=O)C(=O)N[C@H]1CSSC[C@@H](C(N)=O)NC(=O)[C@H](Cc2ccccc2)NC(=O)[C@H](CCCNC(=N)N)NC(=O)[C@@H](Cc2ccccc2)NC(=O)[C@H](CCCNC(=N)N)NC1=O) [CTX-1622]
MEASURED RESULT: 101
--
BINDER: {CH2CO}-[dA]H[dF]RWC-NH2 (thioether N-6; SMILES C[C@H]1NC(=O)CSC[C@@H](C(N)=O)NC(=O)[C@H](Cc2c[nH]c3ccccc23)NC(=O)[C@H](CCCNC(=N)N)NC(=O)[C@@H](Cc2ccccc2)NC(=O)[C@H](Cc2c[nH]cn2)NC1=O) [CTX-1202]
MEASURED RESULT: 104
--
BINDER: Ac-RC[dA]R[dF]R[dW]C-NH2 (disulfide 2-8; SMILES CC(=O)N[C@@H](CCCNC(=N)N)C(=O)N[C@H]1CSSC[C@@H](C(N)=O)NC(=O)[C@@H](Cc2c[nH]c3ccccc23)NC(=O)[C@H](CCCNC(=N)N)NC(=O)[C@@H](Cc2ccccc2)NC(=O)[C@H](CCCNC(=N)N)NC(=O)[C@@H](C)NC1=O) [CTX-1263]
MEASURED RESULT: 93
